Please respond with reported switch fluorescence ratio for every item in the list.
- Tested on: ATP;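 further: ATP exposure 15 min at 22 °C before imaging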
- Assay Summary: switch fluorescence ratio, 500 uM ATP over buffer (Cy3 cluster intensity, sum of 5 cycles each) (fold (ratio)); higher = stronger signal-on switching upon ATP binding; sequences stand for … in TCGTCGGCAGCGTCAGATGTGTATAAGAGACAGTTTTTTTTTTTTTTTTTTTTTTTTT…TC
- Condition Set: aptamer strand: ATP DNA aptamer (quencher-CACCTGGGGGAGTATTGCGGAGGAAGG + anchor), 100 nM annealed; ATP concentration: 500 uM

# annotated cases, reported switch fluorescence ratio shown
Entry Sequence	Result
GATTAAAGGT	1.01
ATCTGAATTG	0.988

// switch fluorescence ratio lookup, key: AAATACCGTT
1.02
